Below, each entry is listed alongside its reported Selectivity.
biological target: TG2 (Homo sapiens (Human)); assay: Inhibitory activity against TG2 (isopeptidase assay), Tables 3 and 4; type: biochemical; conditions: TG2 versus FXIII, Table 4
Sequence (P21980 whole entry): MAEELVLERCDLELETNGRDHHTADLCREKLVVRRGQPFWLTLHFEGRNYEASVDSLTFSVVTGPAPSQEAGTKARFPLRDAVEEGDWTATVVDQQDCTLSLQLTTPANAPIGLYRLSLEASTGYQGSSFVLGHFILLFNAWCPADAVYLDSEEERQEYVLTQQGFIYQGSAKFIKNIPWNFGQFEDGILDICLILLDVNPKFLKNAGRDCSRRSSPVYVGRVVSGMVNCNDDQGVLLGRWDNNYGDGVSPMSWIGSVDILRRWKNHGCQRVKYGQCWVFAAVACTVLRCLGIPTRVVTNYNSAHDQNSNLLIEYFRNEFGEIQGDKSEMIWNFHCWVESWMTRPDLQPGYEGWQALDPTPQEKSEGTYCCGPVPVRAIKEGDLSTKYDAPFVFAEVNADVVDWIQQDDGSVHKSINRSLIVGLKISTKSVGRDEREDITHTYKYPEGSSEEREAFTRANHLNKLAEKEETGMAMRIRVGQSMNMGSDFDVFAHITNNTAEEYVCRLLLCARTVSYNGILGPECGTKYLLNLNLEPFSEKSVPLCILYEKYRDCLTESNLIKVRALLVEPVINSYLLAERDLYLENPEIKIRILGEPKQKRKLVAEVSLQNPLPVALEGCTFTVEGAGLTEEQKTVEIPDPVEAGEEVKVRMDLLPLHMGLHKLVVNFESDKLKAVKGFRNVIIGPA
*1 amine or outer side, *2 acyl side, *3 side chain or, on linkers, in order; H or OH if unused. Where a SMILES comes first, the peptide text is derived from it. [ ]: non-standard residue; d: D form. The star is where a group is joined. ξ: configuration not given here. Benzoyl(2-COOH-4,5-Cl2) = O=C(O)c1cc(Cl)c(Cl)cc1C(=O)*; Nle(5E-ene,6-CO2Et) = CCOC(=O)/C=C/CC[C@H](N)C(=O)O; X1 = COC(=O)/C=C/CC[C@H](N[*:1])C(=O)[*:2]; Thr(3ξ) = CC(O)[C@H](N)C(=O)O; Chg = N[C@H](C(=O)O)C1CCCCC1; Nle = CCCC[C@H](N)C(=O)O
// response body must contain only the number

Requested read-out: Selectivity. Entry: COC(=O)/C=C/CC[C@H](NC(=O)[C@H](CC(N)=O)NC(C)=O)C(=O)N[C@@H](CCC(=O)O)C(=O)N[C@@H](CCC(N)=O)C(=O)N[C@H](C(=O)N[C@@H](CO)C(=O)N1CCC[C@H]1C(=O)N[C@@H](CC(C)C)C(=O)N[C@H](C(=O)N[C@@H](CC(C)C)C(=O)N[C@@H](CC(C)C)C(=O)N[C@@H](CCCCN)C(=O)O)C(C)O)C(C)C (stereo partly shown) [Ref. 17, reference compound] (Ac-N[X1]EQVSPL[Thr(3ξ)]LLK-OH) 0.54

Requested read-out: Selectivity. Entry: COC(=O)/C=C/CC[C@H](NC(=O)[C@H](CC(N)=O)NC(C)=O)C(=O)N[C@@H](CCC(=O)O)C(=O)N[C@@H](CCC(N)=O)C(=O)N[C@H](C(=O)N[C@@H](CO)C(=O)N1CCC[C@H]1C(=O)N[C@@H](CC(C)C)C(=O)N[C@H](C(=O)N[C@@H](CC(C)C)C(=O)O)C(C)O)C(C)C (stereo partly drawn) [Ref. 19, reference compound] (Ac-N[X1]EQVSPL[Thr(3ξ)]L-OH) 0.07

Requested read-out: Selectivity. Entry: CCOC(=O)/C=C/CC[C@H](NC(=O)c1cc(Cl)c(Cl)cc1C(=O)O)C(=O)N[C@H](C(=O)N1CCC[C@H]1C(=O)N[C@@H](CC(C)C)C(=O)N[C@H](C(N)=O)C1CCCCC1)C(C)C [Compound 38] ({Benzoyl(2-COOH-4,5-Cl2)}-[Nle(5E-ene,6-CO2Et)]VPL[Chg]-NH2) 16.17

Requested read-out: Selectivity. Entry: CCCC[C@H](NC(=O)[C@H](CC/C=C/C(=O)OC)NC(=O)[C@@H](CC(=O)O)NC(C)=O)C(=O)N[C@@H](CCCC)C(=O)N[C@@H](CC(C)C)C(=O)N1CCC[C@H]1C(=O)N[C@@H](Cc1c[nH]c2ccccc12)C(=O)O [Ref. 13, reference compound] (Ac-[dD][X1][Nle][Nle]LPW-OH) 6.02

* * *

Below, each entry is listed alongside its reported pIC50.
target: FXIII (Homo sapiens (Human), UniProt P00488); assay: Inhibitory activity against FXIII (isopeptidase assay), Tables 3 and 4; type: biochemical; conditions: Table 4; read-out: FXIII IC50;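 also: FXIIIa activity read with a peptide substrate derived from the α2-antiplasmin N-terminal dodecapeptide, FXIII activated beforehand at room temperature, inhibitor-free wells with DMSO buffer as control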
Sequence (P00488 39-732): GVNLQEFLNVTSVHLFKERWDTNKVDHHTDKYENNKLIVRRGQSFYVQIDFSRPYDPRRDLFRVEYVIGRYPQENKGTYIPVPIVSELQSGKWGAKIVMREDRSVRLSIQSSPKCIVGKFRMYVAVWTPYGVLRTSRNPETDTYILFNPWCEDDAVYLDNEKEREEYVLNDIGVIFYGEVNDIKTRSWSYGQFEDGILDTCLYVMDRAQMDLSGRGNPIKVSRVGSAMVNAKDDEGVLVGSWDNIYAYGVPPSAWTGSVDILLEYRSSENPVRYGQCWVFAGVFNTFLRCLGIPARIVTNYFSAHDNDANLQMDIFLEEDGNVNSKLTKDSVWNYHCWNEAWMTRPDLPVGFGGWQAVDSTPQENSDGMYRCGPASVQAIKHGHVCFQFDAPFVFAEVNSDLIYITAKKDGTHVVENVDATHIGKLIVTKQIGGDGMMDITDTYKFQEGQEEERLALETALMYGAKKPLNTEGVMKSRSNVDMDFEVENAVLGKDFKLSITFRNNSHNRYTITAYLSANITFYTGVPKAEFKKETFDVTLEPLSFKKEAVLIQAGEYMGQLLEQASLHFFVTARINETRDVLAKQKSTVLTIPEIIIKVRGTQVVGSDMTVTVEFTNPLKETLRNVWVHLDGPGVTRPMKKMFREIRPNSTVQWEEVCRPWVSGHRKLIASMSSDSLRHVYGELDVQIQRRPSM
*1 amine or outer side, *2 acyl side, *3 side chain or, on linkers, in order; H or OH if unused. Where a SMILES comes first, the peptide text is derived from it. [ ]: non-standard residue; d: D form. The star is where a group is joined. ξ: configuration not given here. Benzoyl(2-COOH-4,5-Cl2) = O=C(O)c1cc(Cl)c(Cl)cc1C(=O)*; Nle(5E-ene,6-CO2Et) = CCOC(=O)/C=C/CC[C@H](N)C(=O)O; X1 = COC(=O)/C=C/CC[C@H](N[*:1])C(=O)[*:2]; Pro(4-oxo) = O=C1CN[C@H](C(=O)O)C1; Thiophene2carbonyl = O=C(c1cccs1)*; Ile(3ξ) = CCC(C)[C@H](N)C(=O)O; Thr(3ξ) = CC(O)[C@H](N)C(=O)O; Chg = N[C@H](C(=O)O)C1CCCCC1; Nle = CCCC[C@H](N)C(=O)O; Cbz = O=C(OCc1ccccc1)*
The scale used: pIC50 is minus the common logarithm of the concentration in molar units.

# annotated cases, reported pIC50 shown
{"columns": ["molecule", "pIC50"],
 "data": [
  ["CCOC(=O)/C=C/CC[C@H](NC(=O)c1cccs1)C(=O)N[C@@H](CCC(N)=O)C(=O)N1CCC[C@H]1C(=O)N[C@@H](CC(C)C)C(=O)N[C@H](C(N)=O)C1CCCCC1 [Ref. 11, reference compound] (Thiophene2carbonyl-[Nle(5E-ene,6-CO2Et)]QPL[Chg]-NH2)", 5.27],
  ["CCOC(=O)/C=C/CC[C@H](NC(=O)OCc1ccccc1)C(=O)N[C@H](C(=O)N1CCC[C@H]1C(=O)N[C@@H](CC(C)C)C(=O)N[C@H](C(N)=O)C1CCCCC1)C(C)C [Ref. 08, reference compound] (Cbz-[Nle(5E-ene,6-CO2Et)]VPL[Chg]-NH2)", 5.44],
  ["COC(=O)/C=C/CC[C@H](NC(=O)[C@H](CC(N)=O)NC(C)=O)C(=O)N[C@@H](CCC(=O)O)C(=O)N[C@@H](CCC(N)=O)C(=O)N[C@H](C(=O)N[C@@H](CO)C(=O)N1CCC[C@H]1C(=O)N[C@@H](CC(C)C)C(=O)N[C@H](C(=O)O)C(C)O)C(C)C (stereo partly shown) [Ref. 20, reference compound] (Ac-N[X1]EQVSPL[Thr(3ξ)]-OH)", 5.07],
  ["CCCC[C@H](NC(=O)[C@H](CC/C=C/C(=O)OC)NC(=O)[C@@H]1CC(=O)CN1)C(=O)N[C@H](C(=O)N[C@@H](CC(C)C)C(=O)N1CCC[C@H]1C(=O)N[C@@H](Cc1c[nH]c2ccccc12)C(=O)O)C(C)CC (stereo partly shown) [Ref. 15, reference compound] (H-[Pro(4-oxo)][X1][Nle][Ile(3ξ)]LPW-OH)", 6.65],
  ["COC(=O)/C=C/CC[C@H](NC(=O)[C@H](CC(N)=O)NC(C)=O)C(=O)N[C@@H](CCC(=O)O)C(=O)N[C@@H](CCC(N)=O)C(=O)N[C@H](C(=O)N[C@@H](CO)C(=O)N1CCC[C@H]1C(=O)N[C@@H](CC(C)C)C(=O)N[C@H](C(=O)N[C@@H](CC(C)C)C(=O)N[C@@H](CC(C)C)C(=O)N[C@@H](CCCCN)C(=O)O)C(C)O)C(C)C (stereo partly shown) [Ref. 17, reference compound] (Ac-N[X1]EQVSPL[Thr(3ξ)]LLK-OH)", 6.38]
]}

Note: attention shifts to another entry.
Requested read-out: pIC50. Entry: CCOC(=O)/C=C/CC[C@H](NC(=O)c1cc(Cl)c(Cl)cc1C(=O)O)C(=O)N[C@H](C(=O)N1CCC[C@H]1C(=O)N[C@@H](CC(C)C)C(=O)N[C@H](C(N)=O)C1CCCCC1)C(C)C [Compound 38] ({Benzoyl(2-COOH-4,5-Cl2)}-[Nle(5E-ene,6-CO2Et)]VPL[Chg]-NH2) 7.33
